These measurements were taken from the supplement of paper PMC10567573.

B1: PTPRD (parent)
chain: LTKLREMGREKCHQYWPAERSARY

Variants of: B1
Assay: protein stability index of a GFP-peptide fusion (GPS, HEK-293T) (PSI 1-6); higher = more stable;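 note: lentivirally expressed fusions sorted by FACS into six bins by GFP to DsRed ratio, PSI derived from sequencing read proportions per bin multiplied by bin number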
Conditions: c terminus: a fixed tail appended
experimental-readout: protein stability index
Please reply with the value in numeric form only.

Examples with their reported protein stability index follow.
[[record]]
variant_label = "R20I"
experimental_readout = "protein stability index"
measured_value = 1.86

[[record]]
variant_label = "L4T"
experimental_readout = "protein stability index"
measured_value = 2.77

[[record]]
variant_label = "Q14R"
experimental_readout = "protein stability index"
measured_value = 2.04

[[record]]
variant_label = "H13R"
experimental_readout = "protein stability index"
measured_value = 2.31

[[record]]
variant_label = "E19P"
experimental_readout = "protein stability index"
measured_value = 2.29

[[record]]
variant_label = "K11F"
experimental_readout = "protein stability index"
measured_value = 2.14


Ask: Request the reported protein stability index associated with E19N
Reply: 2.46

Ask: Reported protein stability index for W16L : what is it?
Reply: 2.96

Ask: Reported protein stability index, variant R23G : ____
Reply: 2.38

Ask: Name the recorded protein stability index for K3N .
Reply: 3.09

Ask: Dear colleague, I am looking for the recorded protein stability index of the following variant: A18C
Reply: 2.31
